target: full-length beta-Catenin (Uniprot ID P35222) (Homo sapiens, UniProt P35222); construct: 10 nM full-length beta-Catenin (Uniprot ID P35222); experiment: Fluorescence polarization IC50 (beta-catenin / 5FAM-TCF4 10-53 competition); format: binding; conditions: read-out: FP EC50; fluorescence polarization, beta-catenin
observedProperty: pIC50
Interpret pIC50 as the negative base-10 log of the concentration measured in mol/L.

input: Could you please provide reported pIC50 for C[C@@H]1NC(=O)[C@H](C)NC(=O)[C@H](CN(CC(=O)O)CC(F)(F)F)NC(=O)[C@H](Cc2ccsc2)NC(=O)C2(CCCC=CCCCOC(=O)N3CC[C@@](C(=O)N[C@@H](CC(=O)O)C(=O)N[C@@H](Cc4csc5ccccc45)C(=O)N[C@@H](CCC(N)=O)C(N)=O)(C3)NC(=O)[C@H](CC(N)=O)NC(=O)[C@H](Cc3ccccc3)NC1=O)CCCC=CC[C@]1(CCCN1C(=O)CN=[N+]=[N-])C(=O)N[C@@H](CC(=O)O)C(=O)N[C@@H](CC(C)(C)C)C(=O)N2 (stereo partly shown) [I-1056] ? Thanks!
output: 5.19

###

target: beta-catenin/TCF4 engagement (Homo sapiens, UniProt P35222); construct: expressed in transfected cells; host or cells: HEK293; experiment: Nano-BRET target engagement assay (B-cat-Halo & TCF4-Luc in HEK293 cells); assay type: cell-based; details: absolute IC50; read-out: NanoBRET Abs IC50
observedProperty: IC50 (µM)
Value expressed in µM; do not type the unit.

input: Could you please provide reported IC50 for CC(=O)N1CCC[C@]12CC=CCCCC1(CCCC=CCCCOC(=O)N3CC[C@@](C(=O)N[C@@H](Cc4ccsc4)C(=O)N[C@@H](Cc4csc5ccccc45)C(=O)N[C@@H](CCC(N)=O)C(N)=O)(C3)NC(=O)[C@H](CC(C)C)NC(=O)[C@H](Cc3ccccc3)NC(=O)[C@H](C)NC(=O)[C@H](C)NC(=O)[C@H](CCN(CC(=O)O)C(=O)Cc3ccc(C(F)(F)F)cc3)NC(=O)[C@H](CC(=O)O)NC1=O)NC(=O)[C@H](CC(C)(C)C)NC(=O)[C@H](CC(=O)O)NC2=O (some centres unmarked) ? Thanks!
output: 12.9

###

experiment: CHI Log D procedure; format: physicochemical; conditions: pH 7.4
Hi there, I'd appreciate the recorded CHI Log D for every entry that follows.
Just the number, please, no unit after it.

input: Could you please provide reported CHI Log D for CC(=O)N1CCC[C@]12CC=CCCCC1(CCCC=CCCCCCC[C@@](C)(C(=O)N[C@@H](Cc3ccccc3)C(=O)N[C@@H](Cc3csc4ccccc34)C(=O)N[C@@H](CCC(N)=O)C(N)=O)NC(=O)[C@H](CC(N)=O)NC(=O)[C@H](Cc3ccccc3)NC(=O)[C@H](C)NC(=O)[C@H](C)NC(=O)[C@H](CCC(=O)O)NC(=O)[C@H](CCNS(C)(=O)=O)NC1=O)NC(=O)[C@H](C)NC(=O)[C@H](CC(=O)O)NC2=O (stereo partly drawn) [I-531] ? Thanks!
output: 2.794

input: Could you please provide reported CHI Log D for CC(=O)N1CCC[C@]12CC=CCCCC1(CCCC=CCCCOC(=O)N3CC[C@@](C(=O)N[C@@H](Cc4ccsc4)C(=O)N[C@@H](Cc4csc5ccccc45)C(=O)N[C@@H](Cc4ccc(O)cc4)C(N)=O)(C3)NC(=O)[C@H](CC(N)=O)NC(=O)[C@H](Cc3ccccc3)NC(=O)[C@H](C)NC(=O)[C@H](C)NC(=O)[C@H](CN(CC(=O)O)CC(F)(F)F)NC(=O)[C@H](CC(=O)O)NC1=O)NC(=O)[C@H](CC(C)(C)C)NC(=O)[C@H](CC(=O)O)NC2=O (stereo partly drawn) [I-953] ? Thanks!
output: 2.04

input: Could you please provide reported CHI Log D for CC(=O)N1CCC[C@]12CC=CCCCC1(CCCC=CCCCCCC[C@@](C)(C(=O)N[C@@H](Cc3ccccc3)C(=O)N[C@@H](Cc3csc4ccccc34)C(=O)N[C@@H](CCC(N)=O)C(N)=O)NC(=O)[C@H](C(C)C)NC(=O)[C@H](Cc3cccc(F)c3F)NC(=O)[C@H](C)NC(=O)[C@H](C)NC(=O)[C@H](CCC(=O)O)NC(=O)[C@H](CC(=O)O)NC1=O)NC(=O)[C@H](C)NC(=O)[C@H](CC(=O)O)NC2=O (stereo partly drawn) [I-391] ? Thanks!
output: 2.585

###

biological target: full-length beta-Catenin (Uniprot ID P35222) (Homo sapiens, UniProt P35222); construct: 10 nM full-length beta-Catenin (Uniprot ID P35222); experiment: Fluorescence polarization IC50 (beta-catenin / 5FAM-TCF4 10-53 competition); format: binding; details: fluorescence polarization, beta-catenin; read-out: FP EC50
Hi there, I'd appreciate the recorded pIC50 for every entry that follows.
Interpret pIC50 as the negative base-10 log of the concentration measured in mol/L.

input: Could you please provide reported pIC50 for CC(=O)N1CCC[C@]12CC=CCCCC1(CCCC=CCCCOC(=O)N3CC[C@@](C(=O)N[C@@H](Cc4ccsc4)C(=O)N[C@@H](Cc4csc5ccccc45)C(=O)N[C@@H](CCC(N)=O)C(N)=O)(C3)NC(=O)[C@H](CC(N)=O)NC(=O)[C@H](Cc3ccccc3)NC(=O)[C@H](C)NC(=O)[C@H](C)NC(=O)[C@H](Cc3cccc(C(=O)O)c3)NC(=O)[C@H](CC(=O)O)NC1=O)NC(=O)[C@H](CC(C)(C)C)NC(=O)[C@H](CC(=O)O)NC2=O (stereo partly drawn) [I-977] ? Thanks!
output: 6.44

input: Could you please provide reported pIC50 for CC(=O)N1CCC[C@]12CC=CCCCC1(CCCC=CCCCOC(=O)N3CC[C@@](C(=O)N[C@@H](Cc4ccsc4)C(=O)N[C@@H](Cc4csc5ccccc45)C(=O)N[C@@H](CO)C(N)=O)(C3)NC(=O)[C@H]([C@@H](C)O)NC(=O)[C@H](Cc3ccccc3)NC(=O)[C@H](C)NC(=O)[C@H](C)NC(=O)[C@H](CN(CC(=O)O)CC(F)(F)F)NC(=O)[C@H](CC(=O)O)NC1=O)NC(=O)[C@H](CC(C)(C)C)NC(=O)[C@H](CC(=O)O)NC2=O (stereo partly drawn) [I-956] ? Thanks!
output: 5.96

input: Could you please provide reported pIC50 for CC(=O)N1CCC[C@]12CC=CCCCC1(CCCC=CCCCOC(=O)N3CC[C@@](C(=O)N[C@@H](Cc4ccsc4)C(=O)N[C@@H](Cc4csc5ccccc45)C(=O)N[C@@H](CO)C(N)=O)(C3)NC(=O)[C@H](Cc3ccccc3)NC(=O)[C@H](Cc3ccccc3)NC(=O)[C@H](C)NC(=O)[C@H](C)NC(=O)[C@H](Cc3cccc(C(=O)O)c3)NC(=O)[C@H](CC(=O)O)NC1=O)NC(=O)[C@H](CC(C)(C)C)NC(=O)[C@H](CC(=O)O)NC2=O (stereo partly drawn) [I-983] ? Thanks!
output: 6.93

###

molecular target: full-length beta-Catenin (Uniprot ID P35222) (Homo sapiens, UniProt P35222); construct: 10 nM full-length beta-Catenin (Uniprot ID P35222); assay: Fluorescence polarization IC50 (beta-catenin / 5FAM-TCF4 10-53 competition); format: binding; conditions: fluorescence polarization; read-out: beta-Catenin FP IC50
Hi there, I'd appreciate the recorded IC50 for every entry that follows.
Value expressed in µM; do not type the unit.

input: Could you please provide reported IC50 for CCCC[C@@H]1NC(=O)[C@H](CC(=O)O)NC(=O)[C@]2(CC=CCCCC3(CCCC=CCCCOC(=O)N4CC[C@@](C(=O)N[C@@H](Cc5ccsc5)C(=O)N[C@@H](Cc5csc6ccccc56)C(=O)N[C@@H](CC(C)C)C(N)=O)(C4)NC(=O)[C@H](CC(C)C)NC(=O)[C@H](Cc4ccccc4)NC(=O)[C@H](C)NC(=O)[C@H](C)NC(=O)[C@H](CC(=O)O)NC(=O)[C@H](CC(=O)O)NC3=O)NC1=O)CCCN2C(C)=O (some centres unmarked) [I-1411] ? Thanks!
output: 0.109

input: Could you please provide reported IC50 for CC[C@H](C)[C@@H]1NC(=O)[C@H](CC(=O)O)NC(=O)[C@]2(CC=CCCCC3(CCCC=CCCCCCC[C@@](C)(C(=O)N[C@@H](Cc4ccccc4)C(=O)N[C@@H](Cc4csc5ccccc45)C(=O)N[C@@H](CCC(N)=O)C(N)=O)NC(=O)[C@H](CCC(N)=O)NC(=O)[C@H](Cc4ccccc4)NC(=O)[C@H](C)NC(=O)[C@H](C)NC(=O)[C@H](CCC(=O)O)NC(=O)C[C@H](CC(=O)O)NC3=O)NC1=O)CCCN2C(C)=O (some centres unmarked) [I-675] ? Thanks!
output: 4.52

###

Biological target: full-length beta-Catenin (Uniprot ID P35222) (Homo sapiens, UniProt P35222)
Construct: 10 nM full-length beta-Catenin (Uniprot ID P35222)
Sequence (P35222 1-781): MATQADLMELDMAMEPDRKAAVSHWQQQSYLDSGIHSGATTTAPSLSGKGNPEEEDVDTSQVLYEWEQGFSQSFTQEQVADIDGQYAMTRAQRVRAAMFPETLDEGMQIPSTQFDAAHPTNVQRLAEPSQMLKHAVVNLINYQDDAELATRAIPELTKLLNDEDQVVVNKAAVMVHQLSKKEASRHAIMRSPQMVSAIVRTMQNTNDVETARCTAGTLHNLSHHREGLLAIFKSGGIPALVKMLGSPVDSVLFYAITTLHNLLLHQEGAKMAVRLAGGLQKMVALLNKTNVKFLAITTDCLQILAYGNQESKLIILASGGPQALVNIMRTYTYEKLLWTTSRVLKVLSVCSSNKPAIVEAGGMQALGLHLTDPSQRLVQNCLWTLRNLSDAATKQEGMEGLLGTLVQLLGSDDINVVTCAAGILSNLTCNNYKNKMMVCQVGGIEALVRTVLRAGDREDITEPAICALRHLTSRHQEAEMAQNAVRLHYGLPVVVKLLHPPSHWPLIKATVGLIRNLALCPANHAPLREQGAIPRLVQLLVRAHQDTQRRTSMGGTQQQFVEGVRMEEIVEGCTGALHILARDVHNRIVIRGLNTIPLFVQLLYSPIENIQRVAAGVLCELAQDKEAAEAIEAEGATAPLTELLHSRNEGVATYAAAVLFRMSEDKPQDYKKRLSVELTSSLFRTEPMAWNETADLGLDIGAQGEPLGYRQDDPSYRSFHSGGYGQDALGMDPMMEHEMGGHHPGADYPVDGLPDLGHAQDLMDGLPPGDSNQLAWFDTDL
Test: Fluorescence polarization IC50 (beta-catenin / 5FAM-TCF4 10-53 competition)
Format: binding
Settings: fluorescence polarization; read-out: beta-Catenin FP IC50
observedProperty: IC50

input: Could you please provide reported IC50 for CC(=O)N1CCC[C@]12CC=CCCCC1(CCCC=CCCCOC(=O)N3CC[C@@](C(=O)N[C@@H](Cc4ccccc4Cl)C(=O)N[C@@H](Cc4csc5ccccc45)C(=O)N[C@@H](CCC(N)=O)C(N)=O)(C3)NC(=O)[C@H](CC(N)=O)NC(=O)[C@H](Cc3ccccc3)NC(=O)[C@H](C)NC(=O)[C@H](C)NC(=O)[C@H](CN(CC(=O)O)Cc3c(F)c(F)c(F)c(F)c3F)NC(=O)[C@H](CC(=O)O)NC1=O)NC(=O)[C@H](CC(C)(C)C)NC(=O)[C@H](CC(=O)O)NC2=O (some centres unmarked) [I-1448] ? Thanks!
output: 20 nM

input: Could you please provide reported IC50 for CC(=O)N1CCC[C@]12CC=CCCCC1(CCCC=CCCCOC(=O)N3CC[C@@](C(=O)N[C@@H](Cc4ccsc4)C(=O)N[C@@H](Cc4csc5ccccc45)C(=O)N[C@@H](CCC(N)=O)C(N)=O)(C3)NC(=O)[C@H](CC(C)C)NC(=O)[C@H](Cc3ccccc3)NC(=O)[C@H](C)NC(=O)[C@H](C)NC(=O)[C@H](CCn3cc(CC(=O)O)nn3)NC(=O)[C@H](CC(=O)O)NC1=O)NC(=O)[C@H](CC(C)(C)C)NC(=O)[C@H](CC(=O)O)NC2=O (some centres unmarked) ? Thanks!
output: 5 nM
